MIC values for the compounds below.
tested on: S. aureus ATCC 13709; assay: Minimum inhibitory concentration (MIC), S. aureus; type: cell-based, Staphylococcus aureus; conditions: Staphylococcus aureus, ATCC13709, 24 h, read-out: MIC (S. aureus)

Challenge: If you can, please state the reported MIC value of CN(C)CCCOc1ccc(C(NC(=O)c2ccc(-c3cccc(NC(=O)c4ccc(-c5ccccc5Cl)cc4)c3)o2)C(=O)N2CCNCC2)cc1 (stereo not drawn) .
Response given: 25 to 50 mM

Challenge: Form field: reported MIC of CCCc1ccc(-c2ccc(C(=O)Nc3cccc(-c4ccc(C(=O)NC(C(=O)N5CCNCC5)c5ccc(OCCCN(C)C)cc5)o4)c3)cc2)cc1 (stereo not drawn)
Response given: 13 to 25 mM

Challenge: For the compound shown here, CN(C)CCCOc1ccc(C(NC(=O)c2ccc(-c3cccc(NC(=O)c4ccc(-c5ccc(F)cc5F)cc4)c3)o2)C(=O)N2CCNCC2)cc1 (stereo not drawn) , give the reported MIC.
Response given: 6 to 13 mM

Challenge: Look up MIC: Cc1cc(C)c(-c2ccc(C(=O)Nc3cccc(-c4ccc(C(=O)NC(C(=O)N5CCNCC5)c5ccc(OCCCN(C)C)cc5)o4)c3)cc2)c(C)c1 (stereo not drawn)
Response given: 13 to 25 mM

Challenge: # lookup: MIC of Cc1cccc(-c2ccc(C(=O)Nc3cccc(-c4ccc(C(=O)NC(C(=O)N5CCNCC5)c5ccc(OCCCN(C)C)cc5)o4)c3)cc2)c1 (stereo not drawn)
Response given: 13 to 25 mM

###

target: A1061 23S rRNA MS screening construct; experiment: Mass-spec binding assay (SAR by MS, ESI-FTICR-MS)
test.readout: pKd
pKd is defined as minus the log10 of a concentration measured in mol/L.

Challenge: Param item = NCC[C@@H](NC(=O)c1ccco1)C(=O)N1CCNCC1 ; retrieve measured pKd.
Response given: 4.30

###

// reported MIC for each item listed
tested on: S. aureus ATCC 13709; assay: Minimum inhibitory concentration (MIC), S. aureus; format: cell-based, Staphylococcus aureus; conditions: Staphylococcus aureus, ATCC13709, 24 h, read-out: MIC (S. aureus)

| compound | value.reported |
| --- | --- |
| Cc1cccc(C)c1-c1ccc(C(=O)Nc2cccc(-c3ccc(C(=O)NC(C(=O)N4CCNCC4)c4ccc(OCCCN(C)C)cc4)o3)c2)cc1 (stereo not drawn) | 13 to 25 mM |

Challenge: # get_value(readout= MIC, system= S. aureus ATCC 13709) for CCc1ccc(-c2ccc(C(=O)Nc3cccc(-c4ccc(C(=O)NC(C(=O)N5CCNCC5)c5ccc(OCCCN(C)C)cc5)o4)c3)cc2)cc1 (stereo not drawn)
Response given: 6 to 13 mM

Challenge: Observed MIC on S. aureus ATCC 13709 for CN(C)CCCOc1ccc(C(NC(=O)c2ccc(-c3cccc(NC(=O)c4ccc(-c5ccc(C(C)(C)C)cc5)cc4)c3)o2)C(=O)N2CCNCC2)cc1 (stereo not drawn) , please.
Response given: > 100 mM

###

system: E. coli ATCC 25922; assay: Minimum inhibitory concentration (MIC), E. coli; assay type: cell-based, Escherichia coli; settings: Escherichia coli, ATCC25922, 24 h, read-out: MIC (E. coli)
test.readout: MIC

A selection of reference data follows.
| compound | value.reported |
| --- | --- |
| Cc1cccc(-c2ccc(C(=O)Nc3cccc(-c4ccc(C(=O)NC(C(=O)N5CCNCC5)c5ccc(OCCCN(C)C)cc5)o4)c3)cc2)c1 (stereo not drawn) [Compound 39] | 13 to 25 mM |
| CN(C)CCCOc1ccc(C(NC(=O)c2ccc(-c3cccc(NC(=O)c4ccc(-c5ccccc5)cc4Cl)c3)o2)C(=O)N2CCNCC2)cc1 (stereo not drawn) [Compound 60] | 6 to 13 mM |
| Cc1cccc(C)c1-c1ccc(C(=O)Nc2cccc(-c3ccc(C(=O)NC(C(=O)N4CCNCC4)c4ccc(OCCCN(C)C)cc4)o3)c2)cc1 (stereo not drawn) [Compound 44] | 25 to 50 mM |
| Cc1cc(C(=O)Nc2cccc(-c3ccc(C(=O)NC(C(=O)N4CCNCC4)c4ccc(OCCCN(C)C)cc4)o3)c2)ccc1-c1ccccc1 (stereo not drawn) [Compound 62] | 3 to 6 mM |
| Cc1cc(C)c(-c2ccc(C(=O)Nc3cccc(-c4ccc(C(=O)NC(C(=O)N5CCNCC5)c5ccc(OCCCN(C)C)cc5)o4)c3)cc2)c(C)c1 (stereo not drawn) [Compound 45] | 50 to 100 mM |

Challenge: MIC lookup needed for CN(C)CCCOc1ccc(C(NC(=O)c2ccc(-c3cccc(N(C)Cc4ccc(-c5ccccc5)cc4)c3)o2)C(=O)N2CCNCC2)cc1 (stereo not drawn) [Compound 66] , thanks.
Response given: 13 to 25 mM

Challenge: Reported MIC, compound CN(C)CCCOc1ccc(C(NC(=O)c2ccc(-c3cccc(NC(=O)c4ccc(-c5cc(Cl)cc(Cl)c5)cc4)c3)o2)C(=O)N2CCNCC2)cc1 (stereo not drawn) [Compound 49] : ____
Response given: > 100 mM

Challenge: Which value of MIC has been reported for CN(C)CCCOc1ccc(C(NC(=O)c2ccc(-c3cccc(NC(=O)c4ccc(-c5ccccc5Cl)cc4)c3)o2)C(=O)N2CCNCC2)cc1 (stereo not drawn) [Compound 47] in the records?
Response given: 6 to 13 mM

Challenge: // returns reported MIC for input CCCc1ccc(-c2ccc(C(=O)Nc3cccc(-c4ccc(C(=O)NC(C(=O)N5CCNCC5)c5ccc(OCCCN(C)C)cc5)o4)c3)cc2)cc1 (stereo not drawn) [Compound 36]
Response given: > 100 mM

Challenge: What value of measured MIC is listed for CN(C)CCCOc1ccc(C(NC(=O)c2ccc(-c3cccc(NC(=O)c4ccc(-c5ccc(F)cc5F)cc4)c3)o2)C(=O)N2CCNCC2)cc1 (stereo not drawn) [Compound 55] ?
Response given: 25 to 50 mM

Challenge: Would you kindly share the measured MIC for Cc1ccccc1-c1ccc(C(=O)Nc2cccc(-c3ccc(C(=O)NC(C(=O)N4CCNCC4)c4ccc(OCCCN(C)C)cc4)o3)c2)cc1 (stereo not drawn) [Compound 38] ?
Response given: 3 to 6 mM

Challenge: Recorded MIC for Cc1ccc(C)c(-c2ccc(C(=O)Nc3cccc(-c4ccc(C(=O)NC(C(=O)N5CCNCC5)c5ccc(OCCCN(C)C)cc5)o4)c3)cc2)c1 (stereo not drawn) [Compound 43] , please?
Response given: 25 to 50 mM

Challenge: Give the measured MIC of CN(C)CCCOc1ccc(C(NC(=O)c2ccc(-c3cccc(NC(=O)c4ccc(-c5ccccc5)cc4)c3)o2)C(=O)N2CCN(C)CC2)cc1 (stereo not drawn) [Compound 70] .
Response given: 25 to 50 mM

Challenge: If you can, please state the reported MIC value of CC(=O)c1ccccc1-c1ccc(C(=O)Nc2cccc(-c3ccc(C(=O)NC(C(=O)N4CCNCC4)c4ccc(OCCCN(C)C)cc4)o3)c2)cc1 (stereo not drawn) .
Response given: > 100 mM

Challenge: Look up MIC for this compound: CN(C)CCCOc1ccc(C(NC(=O)c2ccc(-c3cccc(NC(=O)c4ccc(-c5ccccc5F)cc4)c3)o2)C(=O)N2CCNCC2)cc1 (stereo not drawn) [Compound 53]
Response given: 13 to 25 mM

Challenge: What value of MIC has been reported for the following compound? CN(C)CCCOc1ccc(C(NC(=O)c2ccc(-c3cccc(NC(=O)c4ccc(-c5ccccc5)cc4)c3)o2)C(=O)N2CCN(S(C)(=O)=O)CC2)cc1 (stereo not drawn) [Compound 71]
Response given: > 100 mM

Challenge: Which MIC is reported for this compound? CN(C)CCCOc1ccc(C(NC(=O)c2ccc(-c3cccc(NCc4ccc(-c5ccccc5)cc4)c3)o2)C(=O)N2CCNCC2)cc1 (stereo not drawn) [Compound 65]
Response given: 13 to 25 mM

Challenge: Entry CCc1ccccc1-c1ccc(C(=O)Nc2cccc(-c3ccc(C(=O)NC(C(=O)N4CCNCC4)c4ccc(OCCCN(C)C)cc4)o3)c2)cc1 (stereo not drawn) [Compound 41] : reported MIC = ?
Response given: 13 to 25 mM

Challenge: I'd like to know its MIC. The compound in question is CN(C)CCCOc1ccc(C(NC(=O)c2ccc(-c3cccc(NC(=O)c4ccc(-c5ccccc5)cc4)c3)o2)C(=O)N2CCNCC2)cc1 (stereo not drawn) [Compound 34]
Response given: 6 to 13 mM

Challenge: Would you mind telling me what MIC value was observed for CN(C)CCCOc1ccc(C(NC(=O)c2ccc(-c3cccc(NC(=O)c4ccc(-c5cccc(F)c5)cc4)c3)o2)C(=O)N2CCNCC2)cc1 (stereo not drawn) ?
Response given: 6 to 13 mM

Challenge: Quick one: MIC of CN(C)CCCOc1ccc(C(NC(=O)c2ccc(-c3cccc(NC(=O)c4ccc(-c5cccc(Cl)c5)cc4)c3)o2)C(=O)N2CCNCC2)cc1 (stereo not drawn) [Compound 48] ?
Response given: 13 to 25 mM

Challenge: Look at this compound and give its reported MIC. CN(C)CCCOc1ccc(C(NC(=O)c2ccc(-c3cccc(NC(=O)c4ccc(-c5ccc(C(C)(C)C)cc5)cc4)c3)o2)C(=O)N2CCNCC2)cc1 (stereo not drawn) [Compound 37]
Response given: > 100 mM

Challenge: Look at this compound and give its reported MIC. COC(=O)N1CCN(C(=O)C(NC(=O)c2ccc(-c3cccc(NC(=O)c4ccc(-c5ccccc5)cc4)c3)o2)c2ccc(OCCCN(C)C)cc2)CC1 (stereo not drawn) [Compound 72]
Response given: > 100 mM

Challenge: Quick one: MIC of CN(C)CCCOc1ccc(C(NC(=O)c2ccc(-c3cccc(NC(=O)c4ccc(-c5ccccc5)cc4)c3)s2)C(=O)N2CCNCC2)cc1 (stereo not drawn) [Compound 69] ?
Response given: 25 to 50 mM
